# System: Human immunodeficiency virus type 1 reverse transcriptase (Human immunodeficiency virus 1), Q72547 [P236L]
# PROCEDURE_SUMMARY: In vitro inhibition of mutant P236L reverse transcriptase at a concentration of 1 uM.
Criterion: inhibition meeting or surpassing 4%. Met: 1.0. Not met: 0.0.

STRUCTURE_SMILES_STRING | CLASSIFICATION
Cc1nn(-c2ccccc2)c(-c2ccccc2)c1C(C)C | 0.0
CC#Cc1c(C)nn(-c2ccccc2)c1-c1ccccc1 | 1.0
COCc1c(C)nn(-c2ccccc2)c1-c1ccccc1 | 0.0
Cc1nn(-c2ccccc2)c(-c2ccccc2)c1CCO | 1.0
Cc1nn(-c2ccccc2)c(-c2ccccc2)c1CC#N | 1.0
Cc1nn(-c2ccccc2)c(-c2ccccc2)c1C(=O)O | 0.0
CCc1c(C)nn(-c2ccccc2)c1-c1ccccc1 | 1.0
CNC(=O)c1c(C)nn(-c2ccccc2)c1-c1ccccc1 | 1.0

###

# Test system: Human immunodeficiency virus type 1 reverse transcriptase (Human immunodeficiency virus 1), Q72547 [P236L]
# PROCEDURE_SUMMARY: In vitro Inhibition of mutant P236L reverse transcriptase at a concentration of 50 uM.
Consider the following molecules and their measured inhibition readings.

STRUCTURE_SMILES_STRING | inhibition [%]
CCc1c(CC(=O)O)nn(-c2ccccc2)c1-c1ccccc1 | 14
CCCc1c(C)nn(-c2ccccc2)c1-c1ccccc1 | 71
CCc1c(CCOC)nn(-c2ccccc2)c1-c1ccccc1 | 71
CCc1c(CC(=O)OC)nn(-c2ccccc2)c1-c1ccccc1 | 55
CCc1c(CCO)nn(-c2ccccc2)c1-c1ccccc1 | 95
CCc1c(CC#N)nn(-c2ccccc2)c1-c1ccccc1 | 72

###

# SYSTEM_NAME: Human immunodeficiency virus type 1 reverse transcriptase (Human immunodeficiency virus 1)
# PROCEDURE_SUMMARY: In vitro inhibition of wild type resistant reverse transcriptase at a concentration of 1 uM.
Criterion: inhibition meeting or surpassing 5%. Met: true (1). Not met: false (0).

STRUCTURE_SMILES_STRING | CLASSIFICATION
Cc1nn(-c2ccccc2)c(-c2ccccc2)c1C(=O)O | false (0)
CCc1c(C)nn(-c2ccccc2)c1-c1ccccc1 | false (0)
Cc1nn(-c2ccccc2)c(-c2ccccc2)c1CC(N)=O | true (1)
CC#Cc1c(C)nn(-c2ccccc2)c1-c1ccccc1 | false (0)
CCc1c(CC(=O)NC)nn(-c2ccccc2)c1-c1ccccc1 | false (0)
CCc1c(CC(N)=O)nn(-c2ccccc2)c1-c1ccccc1 | true (1)
CCc1c(CC(=O)O)nn(-c2ccccc2)c1-c1ccccc1 | false (0)
CCc1c(CC#N)nn(-c2ccccc2)c1-c1ccccc1 | false (0)
COCc1c(C)nn(-c2ccccc2)c1-c1ccccc1 | false (0)
C/N=C(/S)c1c(C)nn(-c2ccccc2)c1-c1ccccc1 | false (0)
Cc1nn(-c2ccccc2)c(-c2ccccc2)c1CCO | false (0)
CCc1c(CCOC)nn(-c2ccccc2)c1-c1ccccc1 | true (1)
Cc1nn(-c2ccccc2)c(-c2ccccc2)c1CC#N | true (1)
Cc1nn(-c2ccccc2)c(-c2ccccc2)c1C(C)C | false (0)
CCCc1c(C)nn(-c2ccccc2)c1-c1ccccc1 | true (1)
CCc1c(CCO)nn(-c2ccccc2)c1-c1ccccc1 | false (0)
